# ASSAY NAME: MTT cell viability (cytotoxicity) assay on L929 cells
# Type: cell-based, mouse
# MEASUREMENT PARAMETERS: mouse, L929 mouse fibroblast cells, 31.25 µg/mL, 24 h, % of untreated cells
OBSERVED PROPERTY: viability at 24 h, 31.25 µg/mL

- SMILES STRUCTURE: "Cc1nc[nH]c1C(=O)NNC(=S)Nc1cccc([N+](=O)[O-])c1"
  RECORDED MEASUREMENT: "89.4%"
- SMILES STRUCTURE: "Cc1nc[nH]c1C(=O)NNC(=S)NCc1ccccc1"
  RECORDED MEASUREMENT: "92%"
- SMILES STRUCTURE: "COc1ccc(NC(=S)NNC(=O)c2nc[nH]c2C)cc1"
  RECORDED MEASUREMENT: "87.7%"
